meta.source: paper PMC3914206

# ASSAY_TARGET: panel of 442 kinases (Homo sapiens, UniProt P06241)
# Construct: purchased KINOMEscan
# Sequence (P06241 whole entry): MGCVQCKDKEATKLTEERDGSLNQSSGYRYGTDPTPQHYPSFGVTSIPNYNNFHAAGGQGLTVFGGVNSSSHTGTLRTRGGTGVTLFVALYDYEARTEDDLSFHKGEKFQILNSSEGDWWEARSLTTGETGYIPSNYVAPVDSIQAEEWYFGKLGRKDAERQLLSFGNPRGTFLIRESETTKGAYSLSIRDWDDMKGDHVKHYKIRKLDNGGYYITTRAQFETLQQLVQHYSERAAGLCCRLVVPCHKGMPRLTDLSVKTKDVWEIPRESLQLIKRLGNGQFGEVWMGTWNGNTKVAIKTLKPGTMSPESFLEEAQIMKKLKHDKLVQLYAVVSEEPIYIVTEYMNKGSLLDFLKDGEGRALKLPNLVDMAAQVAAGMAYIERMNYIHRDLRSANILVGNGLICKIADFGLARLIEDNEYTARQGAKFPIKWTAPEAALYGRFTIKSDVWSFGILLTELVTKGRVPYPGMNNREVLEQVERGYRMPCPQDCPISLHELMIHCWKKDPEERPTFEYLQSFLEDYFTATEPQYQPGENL
# Type: binding
# CONDITION_DETAILS: Compound Concentration 10 µM
Below, each of the compounds is paired with its reported KINOMEscan: FYN value.
MEASUREMENT_NAME: KINOMEscan: FYN

{"columns": ["COMPOUND", "MEASURED"],
 "data": [
  ["COc1cc(C(=O)N2CCC(N3CCN(C)CC3)CC2)ccc1Nc1ncc2c(n1)N(C)c1ccccc1C(=O)N2C [15 (LRRK2-IN-1)]", 100],
  ["COc1cc(C(=O)N2CCC(N3CCN(C)CC3)CC2)ccc1Nc1ncc2c(n1)N(C1CCCC1)c1ccccc1C(=O)N2C [Compound 25]", 86],
  ["COc1cc(C(=O)N2CCC(N3CCN(C)CC3)CC2)ccc1Nc1ncc2c(n1)N1CCc3cccc(c31)C(=O)N2C [Compound 24]", 82],
  ["CCOc1cc(C(=O)N2CCC(N3CCN(C)CC3)CC2)ccc1Nc1ncc2c(n1)N(C1CCCC1)c1ccccc1C(=O)N2C [Compound 26]", 78]
]}

----------
# ASSAY_TARGET: panel of 442 kinases (Homo sapiens)
# Construct: purchased KINOMEscan
# Sequence (Q6ZN16 1-1313): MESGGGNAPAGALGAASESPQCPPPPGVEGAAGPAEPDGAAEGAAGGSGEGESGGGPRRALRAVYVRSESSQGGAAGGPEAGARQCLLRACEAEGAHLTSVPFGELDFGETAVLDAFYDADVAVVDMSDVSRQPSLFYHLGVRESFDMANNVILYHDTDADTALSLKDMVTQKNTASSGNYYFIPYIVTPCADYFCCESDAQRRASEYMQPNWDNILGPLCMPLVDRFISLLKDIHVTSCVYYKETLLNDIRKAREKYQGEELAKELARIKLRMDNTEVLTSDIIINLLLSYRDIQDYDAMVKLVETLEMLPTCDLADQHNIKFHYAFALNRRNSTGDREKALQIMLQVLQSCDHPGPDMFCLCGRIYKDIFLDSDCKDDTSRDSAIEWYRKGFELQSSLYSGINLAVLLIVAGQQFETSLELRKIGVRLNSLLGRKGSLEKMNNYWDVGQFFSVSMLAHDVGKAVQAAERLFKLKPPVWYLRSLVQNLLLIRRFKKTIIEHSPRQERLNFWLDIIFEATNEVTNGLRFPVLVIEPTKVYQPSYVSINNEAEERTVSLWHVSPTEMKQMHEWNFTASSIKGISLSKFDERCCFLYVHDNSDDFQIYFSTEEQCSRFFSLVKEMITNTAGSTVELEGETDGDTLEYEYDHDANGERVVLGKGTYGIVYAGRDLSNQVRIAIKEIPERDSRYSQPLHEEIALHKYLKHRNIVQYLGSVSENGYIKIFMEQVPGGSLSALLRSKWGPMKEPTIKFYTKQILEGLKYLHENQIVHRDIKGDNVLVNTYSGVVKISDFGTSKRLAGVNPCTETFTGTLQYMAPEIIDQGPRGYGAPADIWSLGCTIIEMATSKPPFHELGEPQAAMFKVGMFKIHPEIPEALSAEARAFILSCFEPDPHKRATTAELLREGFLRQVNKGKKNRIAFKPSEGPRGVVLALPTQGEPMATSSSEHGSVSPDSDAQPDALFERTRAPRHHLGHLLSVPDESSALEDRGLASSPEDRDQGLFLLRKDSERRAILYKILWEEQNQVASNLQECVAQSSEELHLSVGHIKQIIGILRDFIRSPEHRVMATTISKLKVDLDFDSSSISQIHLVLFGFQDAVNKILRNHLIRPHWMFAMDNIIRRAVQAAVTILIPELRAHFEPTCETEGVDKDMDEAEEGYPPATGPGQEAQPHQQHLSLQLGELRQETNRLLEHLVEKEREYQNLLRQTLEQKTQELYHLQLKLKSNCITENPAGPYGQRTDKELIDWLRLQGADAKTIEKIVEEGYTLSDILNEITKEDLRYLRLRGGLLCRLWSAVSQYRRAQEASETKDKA
# Assay type: binding
# CONDITION_DETAILS: Compound Concentration 10 µM
MEASUREMENT_NAME: KINOMEscan: MAP3K15

{"columns": ["ITEM_SMILES", "MEASUREMENT_NAME", "MEASURED"],
 "data": [
  ["COc1cc(C(=O)N2CCC(N3CCN(C)CC3)CC2)ccc1Nc1ncc2c(n1)N1CCc3cccc(c31)C(=O)N2C", "KINOMEscan: MAP3K15", 77],
  ["CCOc1cc(C(=O)N2CCC(N3CCN(C)CC3)CC2)ccc1Nc1ncc2c(n1)N(C1CCCC1)c1ccccc1C(=O)N2C", "KINOMEscan: MAP3K15", 95],
  ["COc1cc(C(=O)N2CCC(N3CCN(C)CC3)CC2)ccc1Nc1ncc2c(n1)N(C1CCCC1)c1ccccc1C(=O)N2C", "KINOMEscan: MAP3K15", 88],
  ["COc1cc(C(=O)N2CCC(N3CCN(C)CC3)CC2)ccc1Nc1ncc2c(n1)N(C)c1ccccc1C(=O)N2C", "KINOMEscan: MAP3K15", 69]
]}

----------
# ASSAY_TARGET: panel of 442 kinases (Homo sapiens)
# Construct: purchased KINOMEscan
# Format: binding
# CONDITION_DETAILS: kinase RSK3(Kin.Dom.2-C-terminal); compound concentration 10 µM
Reported % Ctrl, RSK3(Kin.Dom.2-C-terminal) values are given for each entry in this list.

{"columns": ["ITEM_SMILES", "% Ctrl, RSK3(Kin.Dom.2-C-terminal)"],
 "data": [
  ["CCOc1cc(C(=O)N2CCC(N3CCN(C)CC3)CC2)ccc1Nc1ncc2c(n1)N(C1CCCC1)c1ccccc1C(=O)N2C", "83 % Ctrl"],
  ["COc1cc(C(=O)N2CCC(N3CCN(C)CC3)CC2)ccc1Nc1ncc2c(n1)N1CCc3cccc(c31)C(=O)N2C", "13 % Ctrl"],
  ["COc1cc(C(=O)N2CCC(N3CCN(C)CC3)CC2)ccc1Nc1ncc2c(n1)N(C)c1ccccc1C(=O)N2C", "7.5 % Ctrl"],
  ["COc1cc(C(=O)N2CCC(N3CCN(C)CC3)CC2)ccc1Nc1ncc2c(n1)N(C1CCCC1)c1ccccc1C(=O)N2C", "78 % Ctrl"]
]}

----------
# ASSAY_TARGET: panel of 442 kinases (Homo sapiens, UniProt Q9UEW8)
# Construct: purchased KINOMEscan
# Assay type: binding
# CONDITION_DETAILS: kinase STK39; compound concentration 10 µM
MEASUREMENT_NAME: % Ctrl, STK39

{"columns": ["ITEM_SMILES", "MEASURED"],
 "data": [
  ["COc1cc(C(=O)N2CCC(N3CCN(C)CC3)CC2)ccc1Nc1ncc2c(n1)N1CCc3cccc(c31)C(=O)N2C", "100 % Ctrl"],
  ["COc1cc(C(=O)N2CCC(N3CCN(C)CC3)CC2)ccc1Nc1ncc2c(n1)N(C1CCCC1)c1ccccc1C(=O)N2C", "100 % Ctrl"],
  ["COc1cc(C(=O)N2CCC(N3CCN(C)CC3)CC2)ccc1Nc1ncc2c(n1)N(C)c1ccccc1C(=O)N2C", "39 % Ctrl"],
  ["CCOc1cc(C(=O)N2CCC(N3CCN(C)CC3)CC2)ccc1Nc1ncc2c(n1)N(C1CCCC1)c1ccccc1C(=O)N2C", "100 % Ctrl"]
]}

----------
# ASSAY_TARGET: panel of 442 kinases (Homo sapiens, UniProt P42338)
# Construct: purchased KINOMEscan
# Sequence (P42338 whole entry): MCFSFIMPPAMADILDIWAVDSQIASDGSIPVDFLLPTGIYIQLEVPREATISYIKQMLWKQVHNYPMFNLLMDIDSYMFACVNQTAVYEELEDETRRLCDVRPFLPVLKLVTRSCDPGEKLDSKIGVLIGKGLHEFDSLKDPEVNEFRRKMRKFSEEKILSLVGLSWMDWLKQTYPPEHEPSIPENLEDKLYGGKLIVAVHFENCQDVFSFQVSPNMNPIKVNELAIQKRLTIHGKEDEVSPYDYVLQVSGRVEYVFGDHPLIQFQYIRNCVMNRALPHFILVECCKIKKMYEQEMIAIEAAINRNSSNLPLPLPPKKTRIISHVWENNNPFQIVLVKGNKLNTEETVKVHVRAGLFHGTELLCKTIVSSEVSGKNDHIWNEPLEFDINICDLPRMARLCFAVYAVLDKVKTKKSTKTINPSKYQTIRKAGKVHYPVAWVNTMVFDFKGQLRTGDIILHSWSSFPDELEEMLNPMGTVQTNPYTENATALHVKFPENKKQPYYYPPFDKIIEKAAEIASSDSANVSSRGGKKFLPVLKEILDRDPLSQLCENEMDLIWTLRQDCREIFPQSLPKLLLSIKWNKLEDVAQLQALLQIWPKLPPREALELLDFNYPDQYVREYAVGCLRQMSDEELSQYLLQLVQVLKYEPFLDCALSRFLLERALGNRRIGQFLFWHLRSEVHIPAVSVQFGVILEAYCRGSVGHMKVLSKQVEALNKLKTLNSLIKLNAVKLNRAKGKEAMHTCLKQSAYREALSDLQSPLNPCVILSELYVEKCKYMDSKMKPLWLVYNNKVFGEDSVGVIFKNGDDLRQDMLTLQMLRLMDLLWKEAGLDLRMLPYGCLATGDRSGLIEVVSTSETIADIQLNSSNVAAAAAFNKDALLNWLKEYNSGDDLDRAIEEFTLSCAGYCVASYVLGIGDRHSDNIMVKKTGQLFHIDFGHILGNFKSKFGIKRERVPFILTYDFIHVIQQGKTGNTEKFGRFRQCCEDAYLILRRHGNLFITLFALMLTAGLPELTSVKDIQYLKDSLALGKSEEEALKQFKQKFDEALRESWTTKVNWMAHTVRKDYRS
# Format: binding
# CONDITION_DETAILS: Compound Concentration 10 µM
Some molecules, each annotated with its measured KINOMEscan: PIK3CB.
MEASUREMENT_NAME: KINOMEscan: PIK3CB

{"columns": ["ITEM_SMILES", "MEASURED"],
 "data": [
  ["CCOc1cc(C(=O)N2CCC(N3CCN(C)CC3)CC2)ccc1Nc1ncc2c(n1)N(C1CCCC1)c1ccccc1C(=O)N2C", 100],
  ["COc1cc(C(=O)N2CCC(N3CCN(C)CC3)CC2)ccc1Nc1ncc2c(n1)N(C)c1ccccc1C(=O)N2C", 96],
  ["COc1cc(C(=O)N2CCC(N3CCN(C)CC3)CC2)ccc1Nc1ncc2c(n1)N(C1CCCC1)c1ccccc1C(=O)N2C", 87],
  ["COc1cc(C(=O)N2CCC(N3CCN(C)CC3)CC2)ccc1Nc1ncc2c(n1)N1CCc3cccc(c31)C(=O)N2C", 71]
]}

----------
# ASSAY_TARGET: panel of 442 kinases (Homo sapiens)
# Construct: purchased KINOMEscan
# Assay type: binding
# CONDITION_DETAILS: Compound Concentration 10 µM
MEASUREMENT_NAME: KINOMEscan: JNK2

{"columns": ["ITEM_SMILES", "ASSAY_TARGET", "MEASURED"],
 "data": [
  ["CCOc1cc(C(=O)N2CCC(N3CCN(C)CC3)CC2)ccc1Nc1ncc2c(n1)N(C1CCCC1)c1ccccc1C(=O)N2C", "panel of 442 kinases (Homo sapiens)", 63],
  ["COc1cc(C(=O)N2CCC(N3CCN(C)CC3)CC2)ccc1Nc1ncc2c(n1)N(C)c1ccccc1C(=O)N2C", "panel of 442 kinases (Homo sapiens)", 94],
  ["COc1cc(C(=O)N2CCC(N3CCN(C)CC3)CC2)ccc1Nc1ncc2c(n1)N(C1CCCC1)c1ccccc1C(=O)N2C", "panel of 442 kinases (Homo sapiens)", 44],
  ["COc1cc(C(=O)N2CCC(N3CCN(C)CC3)CC2)ccc1Nc1ncc2c(n1)N1CCc3cccc(c31)C(=O)N2C", "panel of 442 kinases (Homo sapiens)", 42]
]}
